# System: Brassica napus L.
# experimental_protocol: Pre-emergence herbicidal inhibition assay, Petri dish test, BN
# Assay type: in vivo
# recorded_conditions: relative to FOS
measurement_label: Relative activity ratio (BN stalk) (fold)
Just the number in fold, nothing appended.

Entry Cc1onc(O)c1CC(P(=O)(O)O)P(=O)(O)O [Compound 13a] ; Relative activity ratio (BN stalk) = 3.9

Entry CCc1onc(O)c1CC(P(=O)(O)O)P(=O)(O)O [Compound 13b] ; Relative activity ratio (BN stalk) = 1.6

Entry `Cc1onc(O)c1CCP(=O)(O)O` ; Relative activity ratio (BN stalk) = 3.1

Entry Cc1n[nH]c(C(F)(F)F)c1CC(P(=O)(O)O)P(=O)(O)O [Compound 12i] ; Relative activity ratio (BN stalk) = 1.5

Entry O=P(O)(O)C(Cc1c(O)noc1C(F)(F)F)P(=O)(O)O [Compound 13e] ; Relative activity ratio (BN stalk) = 14.3

Entry CC(C)c1onc(O)c1CC(P(=O)(O)O)P(=O)(O)O [Compound 13d] ; Relative activity ratio (BN stalk) = 3.0

Entry `CC1(C)CON(CCCP(=O)(O)O)C1=O` ; Relative activity ratio (BN stalk) = 0.8

Entry `CC1(C)CON(CCCC(P(=O)(O)O)P(=O)(O)O)C1=O` ; Relative activity ratio (BN stalk) = 4.0

Entry Cc1onc(C(F)(F)F)c1CC(P(=O)(O)O)P(=O)(O)O [Compound 13i] ; Relative activity ratio (BN stalk) = 1.0

Entry CCCc1onc(O)c1CC(P(=O)(O)O)P(=O)(O)O [Compound 13c] ; Relative activity ratio (BN stalk) = 0.7

Entry `CC(C)c1onc(O)c1CCP(=O)(O)O` ; Relative activity ratio (BN stalk) = 0.9

* * *

measurement_label: melting point

{"columns": ["compound", "melting point"],
 "data": [
  ["CCc1n[nH]c(CC)c1CC(P(=O)(O)O)P(=O)(O)O [Compound 12h]", "> 250 °C"],
  ["Cc1noc(C)c1CC(P(=O)(O)O)P(=O)(O)O [Compound 13g]", "> 250 °C"],
  ["Cc1n[nH]c(C(F)(F)F)c1CC(P(=O)(O)O)P(=O)(O)O [Compound 12i]", "> 250 °C"]
]}

Entry CCCc1n[nH]c(O)c1CCP(=O)(O)O [Compound 5c] ; melting point = 228 to 229 °C

Entry Cc1n[nH]c(C)c1CC(P(=O)(O)O)P(=O)(O)O [Compound 12g] ; melting point = > 250 °C

Entry CCc1noc(CC)c1CC(P(=O)(O)O)P(=O)(O)O [Compound 13h] ; melting point = > 250 °C

* * *

# Tested on: Brassica napus L.
# experimental_protocol: Pre-emergence herbicidal inhibition assay, Petri dish test, BN
# Assay type: in vivo
# recorded_conditions: Brassica napus, 168 h, stalk, 7 days, read-out: EC50 BN Stalk
Listed here: items and their measured EC50.
Just the number in µg/mL, nothing appended.

Sample records with EC50:
{"columns": ["molecule", "unit_annotation", "EC50"],
 "data": [
  ["Cc1n[nH]c(O)c1CC(P(=O)(O)O)P(=O)(O)O [Compound 12a]", "µg/mL", 87.1],
  ["CCCc1onc(O)c1CC(P(=O)(O)O)P(=O)(O)O [Compound 13c]", "µg/mL", 46.9],
  ["Cc1n[nH]c(C)c1CC(P(=O)(O)O)P(=O)(O)O [Compound 12g]", "µg/mL", 32.9]
]}

Entry CC(C)c1onc(O)c1CC(P(=O)(O)O)P(=O)(O)O [Compound 13d] ; EC50 = 11

Data origin: paper PMC10673511
